System: SK-MEL-28 melanoma
Test: NCI tumour cell line growth inhibition, 48 h
Result type: TGI

{"columns": ["Structure smiles string", "Result"],
 "data": [
  ["COc1cc(C[C@@]2(C)[C@@H]3CCC[C@H](CO)[C@@]3(C)CC[C@@H]2C)c(Cl)c(OC)c1", "60.9 µM"],
  ["CN(c1cccc(C(=O)O)c1)c1cc(O/N=[N+](\\[O-])N(C)C)c([N+](=O)[O-])cc1[N+](=O)[O-]", "> 100 µM"],
  ["O=C(N/N=C\\c1ccc(Cl)cc1)Nc1ccc2ccccc2c1", "> 100 µM"],
  ["COc1ccc2nc3cc(Cl)ccc3c(Nc3ccccc3-c3ccccc3Nc3c4ccc(Cl)cc4nc4ccc(OC)cc34)c2c1", "> 86.6 µM"],
  ["O=C(c1ccc(Cl)cc1Cl)N1CCN(C(=O)c2ccc(Cl)cc2Cl)C1=S", "39.4 µM"],
  ["COc1ccc2[nH]c3ccc4cc[n+](CCN5CCC(C6CCN(CC[n+]7ccc8ccc9[nH]c%10ccc(OC)cc%10c9c8c7)CC6)CC5)cc4c3c2c1", "> 50 µM"],
  ["OCc1c(-c2cccs2)oc(-c2cccs2)c1CO", "> 100 µM"],
  ["O=C(O)CCCN1C(=O)/C(=C/C(Cl)=C/c2ccccc2)SC1=S", "3.47 µM"],
  ["COc1ccc2c(c1OC)C(=O)C2", "> 100 µM"],
  ["COc1cc(C[C@H]2COC(=O)[C@]2(O)Cc2ccc(OCc3ccccc3)c(OC)c2)ccc1OCc1ccccc1", "> 100 µM"]
]}

Attribution: PubChem BioAssay (NCI)
